Target: HSD17B13 enzyme (Homo sapiens (Human))
Sequence (Q7Z5P4 20-300): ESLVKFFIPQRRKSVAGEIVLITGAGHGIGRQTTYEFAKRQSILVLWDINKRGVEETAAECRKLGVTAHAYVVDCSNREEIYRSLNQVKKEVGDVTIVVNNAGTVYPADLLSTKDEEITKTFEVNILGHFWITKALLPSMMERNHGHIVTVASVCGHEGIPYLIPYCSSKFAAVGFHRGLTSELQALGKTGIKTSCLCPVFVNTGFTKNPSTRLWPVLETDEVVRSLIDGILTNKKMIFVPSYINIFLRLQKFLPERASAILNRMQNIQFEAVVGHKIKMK
Assay: NADH detection assay (fluorescence based LTB3 assay) for HSD17B13 activity
Assay type: biochemical
Conditions: substrate 25 µM LTB3, 3 mM NAD+, 125 nM enzyme
Would you kindly list IC50 for each of these compounds?

Just so you know, measured IC50 for `COc1ccccc1Cn1cnc2cccc(NC(=O)c3ccc(O)c(Cl)c3)c2c1=O` came out at ≤ 1 µM

Just so you know, measured IC50 for `O=C(Nc1cccc2ncn(-c3ccccc3)c(=O)c12)c1ccc(O)c(Cl)c1` came out at > 10 µM

Just so you know, measured IC50 for `O=C(Nc1cccc2ncn(-c3cccnc3)c(=O)c12)c1ccc(O)c(Cl)c1` came out at > 10 µM

Just so you know, measured IC50 for `COc1ccccc1CCn1cnc2cccc(NC(=O)c3ccnc(C(F)(F)F)c3)c2c1=O` came out at > 10 µM

Just so you know, measured IC50 for `COc1ccccc1CCn1cnc2cccc(NC(=O)c3ccc(CC(=O)O)c(F)c3)c2c1=O` came out at > 10 µM

Just so you know, measured IC50 for `Cn1c(-c2cccnc2)nc2cccc(NC(=O)c3ccc(O)c(Cl)c3)c2c1=O` came out at 1 to 5 µM

Just so you know, measured IC50 for `COc1ccccc1CCn1cnc2cccc(NC(=O)c3ccc(OCC(=O)O)c(F)c3)c2c1=O` came out at > 10 µM

====

Would you kindly list pIC50 for each of these compounds?
Biological target: HSD17B13 enzyme (Homo sapiens (Human))
Test: Estrone detection assay (LC/MS, conversion of estradiol to estrone) for HSD17B13 activity
Type: biochemical
Conditions: substrate 4 µM estradiol, 6 mM NAD+, 30 nM enzyme
pIC50: −log10 of the molar value.

Just so you know, measured pIC50 for `COc1ccccc1CCn1cnc2cccc(NC(=O)c3ccc(-c4cc[nH]n4)c(F)c3)c2c1=O` came out at < 5.00

Just so you know, measured pIC50 for `O=C(Nc1cccc2ncn(Cc3ccncc3)c(=O)c12)c1ccc(O)c(F)c1` came out at 6.00 to 7.00

Just so you know, measured pIC50 for `Cn1c(-c2cccnc2)nc2cccc(NC(=O)c3ccc(O)c(Cl)c3)c2c1=O` came out at 6.00 to 7.00

Just so you know, measured pIC50 for `O=C(Nc1cccc2ncn(Cc3cccnc3)c(=O)c12)c1ccc(O)c(Cl)c1` came out at ≥ 7.00

Just so you know, measured pIC50 for `COc1ccccc1CCn1cnc2cccc(NC(=O)c3ccc(-c4cn[nH]c4)c(F)c3)c2c1=O` came out at < 5.00

Just so you know, measured pIC50 for `O=C(Nc1cccc2ncn(Cc3ccccc3C(F)(F)F)c(=O)c12)c1cc(Cl)c(O)c(C(F)(F)F)n1` came out at 6.00 to 7.00

Just so you know, measured pIC50 for `COc1ccccc1CCn1cnc2cccc(NC(=O)c3cc(Cl)c4[nH]c(=O)[nH]c4c3)c2c1=O` came out at < 5.00

Just so you know, measured pIC50 for `N#Cc1cc(C(=O)Nc2cccc3ncn(Cc4cc[nH]n4)c(=O)c23)cc(F)c1O` came out at 6.00 to 7.00

Just so you know, measured pIC50 for `CC(C)(C)CCn1cnc2cccc(NC(=O)c3cc(Cl)c(O)nn3)c2c1=O` came out at 5.00 to 6.00

Just so you know, measured pIC50 for `O=C(Nc1cccc2ncn(Cc3ccc(F)cc3)c(=O)c12)c1cc(Cl)c(O)c(C(F)(F)F)c1` came out at 6.00 to 7.00

Just so you know, measured pIC50 for `O=C(Nc1cccc2ncn(Cc3ccccc3OC(F)(F)F)c(=O)c12)c1cc(F)c(O)c(C(F)(F)F)c1` came out at ≥ 7.00

Just so you know, measured pIC50 for `COc1ccccc1CCn1cnc2cccc(NC(=O)c3cc(Cl)c(O)c(C(C)C)c3)c2c1=O` came out at < 5.00

Just so you know, measured pIC50 for `CC(C)(C)CCn1cnc2cccc(NC(=O)c3ccc(-c4nnn[nH]4)c(Cl)c3)c2c1=O` came out at 5.00 to 6.00

Just so you know, measured pIC50 for `COc1ccccc1CCn1cnc2cccc(NC(=O)c3ccc(O)c(C(C)(C)C)c3)c2c1=O` came out at < 5.00

Just so you know, measured pIC50 for `O=C(Nc1cccc2ncn(Cc3ccccc3)c(=O)c12)c1ccc(O)c(Cl)c1` came out at ≥ 7.00

Just so you know, measured pIC50 for `O=C(Nc1cccc2ncn(CC3CC3)c(=O)c12)c1ccc(S(=O)(=O)NC(=O)c2ccccc2)c(Cl)c1` came out at 5.00 to 6.00
